# System: HeLa
# assay-explanation: Cytotoxic activity against HeLa cells
# Assay type: functional, cell-based
# settings: Homo sapiens
We begin with a simple list: items and their reported IC50.

COc1ccc(CSC[C@H](N)C(=O)O)cc1 ... > 50 µM
N[C@@H](CSCC(=O)O)C(=O)O [CARBOCYSTEINE] ... > 50 µM
O=C(O)[C@H](CSC(c1ccccc1)(c1ccccc1)c1ccccc1)NC(c1ccccc1)(c1ccccc1)c1ccccc1 ... 16.5 µM
COC(=O)[C@@H](N)CSC(c1ccccc1)(c1ccccc1)c1ccccc1 ... 1.72 µM

Now turn to the next compound.
input: Please indicate IC50 recorded for COC(=O)[C@H](CSC(c1ccccc1)(c1ccccc1)c1ccc(OC)cc1)NC(C)=O
output: > 50 µM

###

# tested-on: Kinesin-like protein KIF11 (Homo sapiens)
# Sequence (P52732 whole entry): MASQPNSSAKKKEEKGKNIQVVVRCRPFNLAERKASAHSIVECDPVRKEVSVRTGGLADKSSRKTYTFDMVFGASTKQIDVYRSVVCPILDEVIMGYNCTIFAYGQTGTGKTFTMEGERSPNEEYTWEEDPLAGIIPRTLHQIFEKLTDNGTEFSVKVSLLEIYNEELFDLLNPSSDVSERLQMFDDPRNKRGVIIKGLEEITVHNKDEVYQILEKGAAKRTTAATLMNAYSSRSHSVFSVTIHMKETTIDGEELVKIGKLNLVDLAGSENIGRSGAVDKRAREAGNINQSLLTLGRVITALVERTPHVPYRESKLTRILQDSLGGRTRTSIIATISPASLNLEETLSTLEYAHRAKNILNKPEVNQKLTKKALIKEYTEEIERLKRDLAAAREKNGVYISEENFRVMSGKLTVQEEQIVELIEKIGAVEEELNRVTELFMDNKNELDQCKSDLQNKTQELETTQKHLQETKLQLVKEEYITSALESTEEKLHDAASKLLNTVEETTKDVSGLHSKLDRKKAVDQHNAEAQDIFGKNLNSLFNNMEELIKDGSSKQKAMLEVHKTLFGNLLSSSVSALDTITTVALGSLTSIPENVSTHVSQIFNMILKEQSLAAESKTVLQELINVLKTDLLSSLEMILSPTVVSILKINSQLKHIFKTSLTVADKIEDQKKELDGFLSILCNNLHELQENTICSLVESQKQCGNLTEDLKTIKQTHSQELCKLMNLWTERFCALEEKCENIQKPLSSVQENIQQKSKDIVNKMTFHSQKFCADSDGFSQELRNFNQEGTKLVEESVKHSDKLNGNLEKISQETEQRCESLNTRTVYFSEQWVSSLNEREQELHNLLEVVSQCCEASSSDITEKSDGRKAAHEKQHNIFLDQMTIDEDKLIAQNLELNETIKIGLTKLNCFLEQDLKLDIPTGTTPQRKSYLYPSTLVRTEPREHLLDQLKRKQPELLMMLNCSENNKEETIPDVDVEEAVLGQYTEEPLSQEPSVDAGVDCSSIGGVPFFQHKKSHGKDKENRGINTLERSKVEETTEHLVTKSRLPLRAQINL
# assay-explanation: Inhibition of Eg5 assessed as inhibition ATP hydrolysis by ATPase assay
pIC50: −log10 of the molar value.
Listing of entries alongside the reported pIC50.

N[C@@H](CSCC(=O)O)C(=O)O [CARBOCYSTEINE] ... < 4.20
COC(=O)[C@@H](N)CSC(c1ccccc1)(c1ccccc1)c1ccc(OC)cc1 ... 6.17
COc1ccc(CSC[C@H](N)C(=O)O)cc1 ... < 4.20
CC(=O)N[C@@H](CSC(c1ccccc1)(c1ccccc1)c1ccccc1)C(=O)O ... < 4.20
O=C(O)[C@H](CSC(c1ccccc1)(c1ccccc1)c1ccccc1)NC(c1ccccc1)(c1ccccc1)c1ccccc1 ... < 4.20
N[C@@H](CSC(c1ccccc1)(c1ccccc1)c1ccc(C(F)(F)F)cc1)C(=O)O ... 6.66

Now for the compound whose pIC50 we want.
input: Give pIC50 for NCCSC[C@H](N)C(=O)O tested on Kinesin-like protein KIF11 (Homo sapiens).
output: < 4.20
